In this section we review reported CD28 scFv signal in presence of CD28 values for a set of binders.
Test System: T1, Anti-CD28 scFv (VH-linker 1-VL) (biotinylated (site not stated))
T1 construct: biotinylated and captured on neutravidin coated plates in the phage ELISA
T1 sequence (scFv, as listed by the source): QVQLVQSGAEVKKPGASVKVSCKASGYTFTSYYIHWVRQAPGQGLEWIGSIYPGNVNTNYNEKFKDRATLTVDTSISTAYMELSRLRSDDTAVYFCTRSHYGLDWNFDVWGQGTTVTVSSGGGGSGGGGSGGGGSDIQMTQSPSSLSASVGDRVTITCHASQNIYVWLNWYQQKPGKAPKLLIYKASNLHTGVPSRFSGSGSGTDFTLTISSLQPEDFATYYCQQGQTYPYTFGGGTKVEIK
Assay Notes: phage binding ELISA on captured anti-CD28 scFv, wells pre-incubated with soluble CD28 (competitor);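 also: crude clonal phage supernatants added without washing, bound phage detected by HRP-conjugated anti-M13 antibody, control wells held blocking buffer alone instead of CD28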
Could you keep your reply to the number by itself?

Binder	Observed Value
MNWCPMHLWAECFN [Phage-363]	0.14

Value of CD28 scFv signal in presence of CD28 reported for the binder LAGCQRDLATVCVI [Phage-383] is 0.116

Form field CD28 scFv signal in presence of CD28, entry MDWCPRTLWDQCFF [Phage-339] : 0.314

Per the record, MDWCPRHLWIECFN [Phage-322] has CD28 scFv signal in presence of CD28 of 0.376

Briefly, CD28 scFv signal in presence of CD28 measured for MSWCPWDMWNECFA [Phage-403] : 0.108

Recorded result, MDWCPLDMWVLCFA [Phage-401] , CD28 scFv signal in presence of CD28: 0.169

Entry MDWCPSDMWANCFF [Phage-389] — recorded CD28 scFv signal in presence of CD28 = 0.316

Entry under test: IDWCPMHMWDFCYN [Phage-390] . Its CD28 scFv signal in presence of CD28 was 0.232

Where these numbers come from: patent US20230357447A1
